biological target: T1, Ebola virus GP with a C-terminal polyhistidine tag (Sino Biologicals, Catalog #40442-V08B1) (Ebola virus, UniProt P87666 33-650); experiment: SPR 37C, mAb captured, pH chase
T1 construct: also called EbolaGP.his; Ebola virus GP.his

BINDER: H1H17223P (antibody, V domains shown) VH: EVQLVESGGGLVQPGGSLRLSCAASGFTFRTYDMHWVRQATGKGLEWVSAIGTAGDTYYPGSVKGRFTISRENAKNSLYLQMNSLRAGDTAVYYCARTIFGVVLTFDYWGQGTLVTVSS VL: DIQMTQSPSSLSASVGDRVTITCRASQSISSSLNWYQQKPGKAPKLLIYAASSLHSGVPSRFSGSGSGTDFTLTISSLQPEDFATYYCQQTYSIPPTTFGQGTKVEIK
t½ ratio pH 7.4/pH 6.0: 0.4

BINDER: H1H17196P (antibody, V domains shown) VH: EVQLVESGGGLVQPGGSLRLSCAASGFTFRSYDMHWVRQGSGKGLEWVSAIGTAGDTYYLGSVKGRFTISRENAKNSLYLQMNSLRAGDTAVYYCARAWFGDVFLDYWGQGTLVTVSS VL: EIVMTQSPATLSVSPGERATLSCRASQSVSSNLAWYQQKPGQAPRLLIYGASTRATGIPARFSGSGSGTEFTLTISSLQSEDFAGYYCQQYNNRLTFGGGTKVEIK
t½ ratio pH 7.4/pH 6.0: 1
